- Test system: HOP-62
- Assay procedure: Antiproliferative activity was determined for 50% growth inhibition against human lung HOP-62 cell line
- Assay type: functional
- Condition context: Homo sapiens, HOP-62
With a cut-off of 4 µM, any GI50 strictly below it is called label 1; any GI50 meeting it or above is called label 0.

{"columns": ["Compound string", "Label"],
 "data": [
  ["COc1cc2c3c(n(C)c(=O)c2cc1OC)-c1cc2c(cc1C3=O)OCO2", "label 1"],
  ["COc1cc2c(cc1OC)-c1c(c3ccccc3c(=O)n1CCCCl)C2=O", "label 0"],
  ["COc1cc2c3c(n(C)c(=O)c2cc1OC)-c1cc2c(cc1C3)OCO2", "label 0"],
  ["COc1cc2c3c(n(CCCN=[N+]=[N-])c(=O)c2cc1OC)-c1cc2c(cc1C3=O)OCO2", "label 1"],
  ["O=C1c2ccccc2-c2c1c1ccccc1c(=O)n2CCCl", "label 1"],
  ["O=C1c2ccccc2-c2c1c1ccccc1c(=O)n2CCCO", "label 0"]
]}

====

- Test system: DU-145
- Assay procedure: Antiproliferative activity was determined for 50% growth inhibition against human Prostate DU-145 cell line
- Format: functional
- Condition context: Homo sapiens, DU-145
GI50: recorded values
Property: GI50 (nM)

{"columns": ["Compound string", "Property", "Result operator", "Recorded measurement"],
 "data": [
  ["COc1cc2c(cc1OC)-c1c(c3cc(OC)c(OC)cc3c(=O)n1CCCBr)C2=O", "GI50", "=", 1920],
  ["COc1cc2c3c(n(CCCN)c(=O)c2cc1OC)-c1cc2c(cc1C3=O)OCO2.Cl", "GI50", "=", 40],
  ["CCn1c2c(c3cc(OC)c(OC)cc3c1=O)Cc1cc3c(cc1-2)OCO3", "GI50", ">", 100000],
  ["CC[C@@]1(O)C(=O)OCc2c1cc1n(c2=O)Cc2cc3ccccc3nc2-1", "GI50", "=", 10],
  ["COc1cc2c3c(n(CCCNCCCO)c(=O)c2cc1OC)-c1cc2c(cc1C3=O)OCO2", "GI50", "=", 10]
]}

====

- System: HOP-62
- Assay procedure: Antiproliferative activity was determined for 50% growth inhibition against human lung HOP-62 cell line
- Format: functional
- Condition context: Homo sapiens, HOP-62
Property: GI50

{"columns": ["Compound string", "Recorded measurement"],
 "data": [
  ["COc1cc2c3c(n(CCCNCCCO)c(=O)c2cc1OC)-c1cc2c(cc1C3=O)OCO2", "30 nM"],
  ["COc1cc2c3c(n(CCCN)c(=O)c2cc1OC)-c1cc2c(cc1C3=O)OCO2.Cl", "60 nM"],
  ["O=C1c2ccccc2-c2c1c1ccccc1c(=O)n2CCCBr", "4590 nM"],
  ["O=C1c2cc3c(cc2-c2c1c1ccccc1c(=O)n2CCCCl)OCO3", "13100 nM"]
]}
